Entry source: patent US20190076400A1

// values below are reported MOR EC50
molecular target: µ-opioid receptor (MOR), Human-ORPM1 (human, UniProt P35372 1-400); assay: cell-based or functional assay
Sequence (P35372 whole entry): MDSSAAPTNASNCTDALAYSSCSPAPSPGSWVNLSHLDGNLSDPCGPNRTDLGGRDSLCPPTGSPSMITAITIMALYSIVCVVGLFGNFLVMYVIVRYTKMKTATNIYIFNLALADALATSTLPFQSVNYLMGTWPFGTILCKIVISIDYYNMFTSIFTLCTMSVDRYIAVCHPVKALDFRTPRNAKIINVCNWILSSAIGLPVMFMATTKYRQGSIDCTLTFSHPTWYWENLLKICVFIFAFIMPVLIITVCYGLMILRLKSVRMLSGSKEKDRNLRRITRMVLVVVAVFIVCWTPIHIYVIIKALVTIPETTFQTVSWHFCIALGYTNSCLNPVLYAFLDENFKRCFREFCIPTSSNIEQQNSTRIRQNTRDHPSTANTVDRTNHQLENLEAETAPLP
Square brackets hold non-standard residues; d marks the D form. Phe(4-CN) = N#Cc1ccc(C[C@H](N)C(=O)O)cc1; Dmt = Cc1cc(O)cc(C)c1C[C@H](N)C(=O)O; hPhe = N[C@@H](CCc1ccccc1)C(=O)O; Tic = O=C(O)[C@@H]1Cc2ccccc2CN1; β3hF = N[C@H](CC(=O)O)Cc1ccccc1; Nle = CCCC[C@H](N)C(=O)O; Sar = CNCC(=O)O

H-[Dmt][dA][hPhe][Nle]-NH2 (SMILES CCCC[C@H](NC(=O)[C@H](CCc1ccccc1)NC(=O)[C@@H](C)NC(=O)[C@@H](N)Cc1c(C)cc(O)cc1C)C(N)=O) [H-DMT-a-hF-Nle-NH2]; ≤ 1 nM
H-[Dmt][Tic]G[β3hF][Sar]-NH2 (SMILES Cc1cc(O)cc(C)c1C[C@H](N)C(=O)N1Cc2ccccc2C[C@H]1C(=O)NCC(=O)N[C@H](CC(=O)N(C)CC(N)=O)Cc1ccccc1) [H-DMT-Tic-G-bhF-Sar-NH2]; ≤ 200 nM
H-[Dmt][dR][Phe(4-CN)][Sar]-NH2 (SMILES Cc1cc(O)cc(C)c1C[C@H](N)C(=O)N[C@H](CCCNC(=N)N)C(=O)N[C@@H](Cc1ccc(C#N)cc1)C(=O)N(C)CC(N)=O) [H-DMT-r-Phe(4-CN)-Sar-NH2]; ≤ 10 nM

Next binder, please.
Using the record for H-[Dmt][dR]HK-NH2 (SMILES Cc1cc(O)cc(C)c1C[C@H](N)C(=O)N[C@H](CCCNC(=N)N)C(=O)N[C@@H](Cc1c[nH]cn1)C(=O)N[C@@H](CCCCN)C(N)=O) [H-DMT-r-H-K-NH2] , report its MOR EC50.
≤ 50 nM
